Just for reference, patent US20240000872A1 is where these values come from.

Test system: Acinetobacter baumannii strains
ASSAY INFO: Antibiotic susceptibility test (CLSI disk diffusion test method, read per CLSI 2016); note: key: ‘S’ means susceptible; ‘I’ means intermediate; ‘R’ means resistant
Assay type: cell-based
SETUP CONDITIONS: host strain YMC14/02/R2668
OBSERVATION TYPE: antibiotic susceptibility class

Use the examples below as a reference point.
CHEM SMILES	antibiotic susceptibility class
C[C@@H](O)[C@H]1C(=O)N2C(C(=O)O)=C(SCCN=CN)C[C@H]12	R
CC(C)(O/N=C(\C(=O)N[C@@H]1C(=O)N2C(C(=O)[O-])=C(C[n+]3ccccc3)CS[C@H]12)c1csc(N)n1)C(=O)O	R
CN(C)c1ccc(O)c2c1C[C@H]1C[C@H]3[C@H](N(C)C)C(O)=C(C(N)=O)C(=O)[C@@]3(O)C(O)=C1C2=O	S
C[C@H]1COc2c(N3CCN(C)CC3)c(F)cc3c(=O)c(C(=O)O)cn1c23	R
NCC[C@H](O)C(=O)N[C@@H]1C[C@H](N)[C@@H](O[C@H]2O[C@H](CN)[C@@H](O)[C@H](O)[C@H]2O)[C@H](O)[C@H]1O[C@H]1O[C@H](CO)[C@@H](O)[C@H](N)[C@H]1O	R

Next item in the queue.
GET /values?readout=antibiotic susceptibility class&item= `CN(C)c1cc(NC(=O)CNC(C)(C)C)c(O)c2c1C[C@H]1C[C@H]3[C@H](N(C)C)C(O)=C(C(N)=O)C(=O)[C@@]3(O)C(O)=C1C2=O`
R

====

Tested on: Acinetobacter baumannii strains
ASSAY INFO: Antibiotic susceptibility test (CLSI disk diffusion test method, read per CLSI 2016); note: key: ‘S’ means susceptible; ‘I’ means intermediate; ‘R’ means resistant
Format: cell-based
SETUP CONDITIONS: host strain YMC15/03/R1604
OBSERVATION TYPE: susceptibility category (S/I/R)

Worked examples, 5 molecules total:
CHEM SMILES	ASSAYED SYSTEM	REPORTED RESULT
CC(C)(O/N=C(\C(=O)N[C@@H]1C(=O)N2C(C(=O)[O-])=C(C[n+]3ccccc3)CS[C@H]12)c1csc(N)n1)C(=O)O	Acinetobacter baumannii strains	R
CCN1CCN(C(=O)N[C@@H](C(=O)N[C@@H]2C(=O)N3[C@@H]2SC(C)(C)[C@@H]3C(=O)O)c2ccccc2)C(=O)C1=O	Acinetobacter baumannii strains	R
C[C@@H](O)[C@H]1C(=O)N2C(C(=O)O)=C(SCCN=CN)C[C@H]12	Acinetobacter baumannii strains	R
CO/N=C(\C(=O)N[C@@H]1C(=O)N2C(C(=O)O)=C(COC(C)=O)CS[C@H]12)c1csc(N)n1	Acinetobacter baumannii strains	R
C[C@H]1COc2c(N3CCN(C)CC3)c(F)cc3c(=O)c(C(=O)O)cn1c23	Acinetobacter baumannii strains	R

What value of measured susceptibility category (S/I/R) is listed for `C[C@@H](O)[C@H]1C(=O)N2C(C(=O)O)=C(S[C@@H]3CN[C@H](C(=O)N(C)C)C3)[C@H](C)[C@H]12` ?
R

# get_value(readout='susceptibility category (S/I/R)', item= `NCC[C@H](O)C(=O)N[C@@H]1C[C@H](N)[C@@H](O[C@H]2O[C@H](CN)[C@@H](O)[C@H](O)[C@H]2O)[C@H](O)[C@H]1O[C@H]1O[C@H](CO)[C@@H](O)[C@H](N)[C@H]1O` )
R

Please give the measured susceptibility category (S/I/R) for this molecule: `CN(C)c1ccc(O)c2c1C[C@H]1C[C@H]3[C@H](N(C)C)C(O)=C(C(N)=O)C(=O)[C@@]3(O)C(O)=C1C2=O`
S

If you can, please state the reported susceptibility category (S/I/R) value of `CN(C)c1cc(NC(=O)CNC(C)(C)C)c(O)c2c1C[C@H]1C[C@H]3[C@H](N(C)C)C(O)=C(C(N)=O)C(=O)[C@@]3(O)C(O)=C1C2=O` .
S

====

Test system: Acinetobacter baumannii strains
ASSAY INFO: Antibiotic susceptibility test (CLSI disk diffusion test method, read per CLSI 2016); note: key: ‘S’ means susceptible; ‘I’ means intermediate; ‘R’ means resistant
Type: cell-based
SETUP CONDITIONS: host strain YMC14/02/R2599
OBSERVATION TYPE: antibiotic susceptibility class

CHEM SMILES	ASSAYED SYSTEM	REPORTED RESULT
CCN1CCN(C(=O)N[C@@H](C(=O)N[C@@H]2C(=O)N3[C@@H]2SC(C)(C)[C@@H]3C(=O)O)c2ccccc2)C(=O)C1=O	Acinetobacter baumannii strains	R
NCC[C@H](O)C(=O)N[C@@H]1C[C@H](N)[C@@H](O[C@H]2O[C@H](CN)[C@@H](O)[C@H](O)[C@H]2O)[C@H](O)[C@H]1O[C@H]1O[C@H](CO)[C@@H](O)[C@H](N)[C@H]1O	Acinetobacter baumannii strains	S
C[C@@H](O)[C@H]1C(=O)N2C(C(=O)O)=C(S[C@@H]3CN[C@H](C(=O)N(C)C)C3)[C@H](C)[C@H]12	Acinetobacter baumannii strains	R
CO/N=C(\C(=O)N[C@@H]1C(=O)N2C(C(=O)O)=C(COC(C)=O)CS[C@H]12)c1csc(N)n1	Acinetobacter baumannii strains	R
CC(C)(O/N=C(\C(=O)N[C@@H]1C(=O)N2C(C(=O)[O-])=C(C[n+]3ccccc3)CS[C@H]12)c1csc(N)n1)C(=O)O	Acinetobacter baumannii strains	R

// map `C[C@H]1COc2c(N3CCN(C)CC3)c(F)cc3c(=O)c(C(=O)O)cn1c23` to recorded antibiotic susceptibility class (system: Acinetobacter baumannii strains)
R

Missing value: antibiotic susceptibility class, Acinetobacter baumannii strains, entry `C[C@@H](O)[C@H]1C(=O)N2C(C(=O)O)=C(SCCN=CN)C[C@H]12` . Fill in?
R

Lab note: need antibiotic susceptibility class with Acinetobacter baumannii strains for entry `CN(C)c1ccc(O)c2c1C[C@H]1C[C@H]3[C@H](N(C)C)C(O)=C(C(N)=O)C(=O)[C@@]3(O)C(O)=C1C2=O` , please look it up.
S

Fill in the recorded antibiotic susceptibility class for this compound, with Acinetobacter baumannii strains as test system: `CN(C)c1cc(NC(=O)CNC(C)(C)C)c(O)c2c1C[C@H]1C[C@H]3[C@H](N(C)C)C(O)=C(C(N)=O)C(=O)[C@@]3(O)C(O)=C1C2=O`
S

====

Test system: Acinetobacter baumannii strains
ASSAY INFO: Antibiotic susceptibility test (CLSI disk diffusion test method, read per CLSI 2016); note: key: ‘S’ means susceptible; ‘I’ means intermediate; ‘R’ means resistant
Assay type: cell-based
SETUP CONDITIONS: host strain YMC/17/05/R1095
OBSERVATION TYPE: susceptibility category (S/I/R)

Solved cases (4 shown):
CHEM SMILES	susceptibility category (S/I/R)
NCC[C@H](O)C(=O)N[C@@H]1C[C@H](N)[C@@H](O[C@H]2O[C@H](CN)[C@@H](O)[C@H](O)[C@H]2O)[C@H](O)[C@H]1O[C@H]1O[C@H](CO)[C@@H](O)[C@H](N)[C@H]1O	R
CN(C)c1cc(NC(=O)CNC(C)(C)C)c(O)c2c1C[C@H]1C[C@H]3[C@H](N(C)C)C(O)=C(C(N)=O)C(=O)[C@@]3(O)C(O)=C1C2=O	I
C[C@H]1COc2c(N3CCN(C)CC3)c(F)cc3c(=O)c(C(=O)O)cn1c23	R
CC(C)(O/N=C(\C(=O)N[C@@H]1C(=O)N2C(C(=O)[O-])=C(C[n+]3ccccc3)CS[C@H]12)c1csc(N)n1)C(=O)O	R

Could you now consider this next compound?
Which susceptibility category (S/I/R) value is on record for `CO/N=C(\C(=O)N[C@@H]1C(=O)N2C(C(=O)O)=C(COC(C)=O)CS[C@H]12)c1csc(N)n1` ?
R

====

Test system: Acinetobacter baumannii strains
ASSAY INFO: Antibiotic susceptibility test (CLSI disk diffusion test method, read per CLSI 2016); note: key: ‘S’ means susceptible; ‘I’ means intermediate; ‘R’ means resistant
Assay type: cell-based
SETUP CONDITIONS: host strain YMC14/01/U318

CHEM SMILES	ASSAYED SYSTEM	antibiotic susceptibility class
C[C@@H](O)[C@H]1C(=O)N2C(C(=O)O)=C(SCCN=CN)C[C@H]12	Acinetobacter baumannii strains	R
CCN1CCN(C(=O)N[C@@H](C(=O)N[C@@H]2C(=O)N3[C@@H]2SC(C)(C)[C@@H]3C(=O)O)c2ccccc2)C(=O)C1=O	Acinetobacter baumannii strains	R
NCC[C@H](O)C(=O)N[C@@H]1C[C@H](N)[C@@H](O[C@H]2O[C@H](CN)[C@@H](O)[C@H](O)[C@H]2O)[C@H](O)[C@H]1O[C@H]1O[C@H](CO)[C@@H](O)[C@H](N)[C@H]1O	Acinetobacter baumannii strains	R

====

Test system: Acinetobacter baumannii strains
ASSAY INFO: Antibiotic susceptibility test (CLSI disk diffusion test method, read per CLSI 2016); note: key: ‘S’ means susceptible; ‘I’ means intermediate; ‘R’ means resistant
Type: cell-based
SETUP CONDITIONS: host strain YMC17/02/B87
OBSERVATION TYPE: antibiotic susceptibility S/I/R

Guide cases for antibiotic susceptibility S/I/R, answers given:
CHEM SMILES	antibiotic susceptibility S/I/R
CN(C)c1cc(NC(=O)CNC(C)(C)C)c(O)c2c1C[C@H]1C[C@H]3[C@H](N(C)C)C(O)=C(C(N)=O)C(=O)[C@@]3(O)C(O)=C1C2=O	S
C[C@@H](O)[C@H]1C(=O)N2C(C(=O)O)=C(SCCN=CN)C[C@H]12	R
C[C@H]1COc2c(N3CCN(C)CC3)c(F)cc3c(=O)c(C(=O)O)cn1c23	R
CO/N=C(\C(=O)N[C@@H]1C(=O)N2C(C(=O)O)=C(COC(C)=O)CS[C@H]12)c1csc(N)n1	R
CCN1CCN(C(=O)N[C@@H](C(=O)N[C@@H]2C(=O)N3[C@@H]2SC(C)(C)[C@@H]3C(=O)O)c2ccccc2)C(=O)C1=O	R
NCC[C@H](O)C(=O)N[C@@H]1C[C@H](N)[C@@H](O[C@H]2O[C@H](CN)[C@@H](O)[C@H](O)[C@H]2O)[C@H](O)[C@H]1O[C@H]1O[C@H](CO)[C@@H](O)[C@H](N)[C@H]1O	S
C[C@@H](O)[C@H]1C(=O)N2C(C(=O)O)=C(S[C@@H]3CN[C@H](C(=O)N(C)C)C3)[C@H](C)[C@H]12	R

What does the record list as antibiotic susceptibility S/I/R for `CC(C)(O/N=C(\C(=O)N[C@@H]1C(=O)N2C(C(=O)[O-])=C(C[n+]3ccccc3)CS[C@H]12)c1csc(N)n1)C(=O)O` ?
R
